Where do the numbers come from? From the supplement of paper PMC12317010.

experiment: collision cross section in nitrogen (drift tube, single-field); higher = larger gas-phase ion size; settings: ion type: [M-H]; ion source: ESI; ion mode: Negative;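 note: chemical standards at 10 µM analysed by drift tube IMS-QTOF MS in about 3.95 torr nitrogen, mean of duplicate injections differing ≤1%, mass error below 10 ppm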
Measurement Type: collision cross section in nitrogen (Å²)

Compound	Recorded Measurement
CCOC(=O)c1sc(N)nc1C(F)(F)F [Ethyl 2-amino-4-(trifluoromethyl)-1,3-thiazole-5-carboxylate]	140.9
CC(C)(CO)[C@@H](O)C(=O)NCCC(=O)O [Sodium pantothenate]	147.1
Nc1ccc(N)c2c1C(=O)c1ccccc1C2=O	149.1
Nc1cnn(-c2ccccc2)c(=O)c1Cl	143.7

###

assay: collision cross section in nitrogen (drift tube, single-field); higher = larger gas-phase ion size; conditions: ion type: [M-H]; ion source: ESI; ion mode: Negative
Measurement Type: collision cross section in nitrogen (Å²)

Solved cases below.
Compound	Unit Abbreviation	collision cross section in nitrogen
Cc1cnc(NC(=O)C2=C(O)c3ccccc3S(=O)(=O)N2C)s1 [Meloxicam]	Å²	177.7
CCc1nn(C2CCCCC2)c2cc([C@]3(C#N)CC[C@@H](C(=O)O)CC3)ccc12	Å²	213.8
CCc1ccc(O)c(C(C)(C)C)c1 [2-tert-Butyl-4-ethylphenol]	Å²	144.6

1: CC(=O)S[C@H](C(=O)N[C@H]1Cc2ccccc2[C@H]2CCC[C@@H](C(=O)O)N2C1=O)C(C)C [Ilepatril]
2: OC[C@@H](O)[C@H](O)[C@@H](O)[C@@H](O)CO [L-Glucitol]
Short answer wanted: higher collision cross section in nitrogen, 1 or 2 ? Lab log: write the label of the selected item as the result.
1
